Record form. Attribute: IC50. Fill in for each entry.
Test system: WM3928 cells
Experiment: WM3928 Cell Proliferation Assay (1)
Type: cell-based

[Q] Lookup: IC50 / WM3928 cells / Cc1ncc(NC(=O)c2ccnc(C(C)(C)F)c2)cc1-c1cncc(-c2cc(NC(=O)C3CC3)ncn2)c1
[A] ≤ 100 nM

[Q] Given the entry Cc1ccc(NC(=O)c2ccnc(C(C)(C)C#N)c2)cc1-c1cccc(-c2ccnc3[nH]ncc23)c1 , what IC50 was observed with WM3928 cells?
[A] ≤ 100 nM

[Q] Request body: readout IC50, system WM3928 cells, query Cc1ncc(NC(=O)c2ccnc(C(C)(C)C#N)c2)cc1-c1cccc(-c2cc(NC(=O)C3CC3)ncn2)c1 . Return the value.
[A] ≤ 100 nM

[Q] For the record CNC(=O)c1cc(-c2cc(-c3cc(NC(=O)c4ccnc(C(C)(C)F)c4)ccc3C)cnc2C)ccn1 , what value of IC50 is listed for WM3928 cells?
[A] 100 to 500 nM

[Q] What reported IC50 corresponds to Cc1ncc(NC(=O)c2cn(C(C)C)nn2)cc1-c1nccc(-c2ccnc(NC(=O)C3CC3)c2)n1 on WM3928 cells?
[A] 1000 to 10000 nM

[Q] Given the entry COCC(=O)Nc1cc(-c2nccc(-c3cc(NC(=O)c4ccnc(C(C)(C)C#N)c4)ccc3C)n2)ccn1 , what IC50 was observed with WM3928 cells?
[A] ≤ 100 nM

[Q] Lab request: please report IC50 under test system WM3928 cells for Cc1ccc(NC(=O)c2ccnc(C(F)F)c2)cc1-c1cncc(-c2cc(NC(=O)C3CC3)ncn2)c1
[A] ≤ 100 nM
